Measured NFκB luc, 0.91 ng/ml, with x linker by item
EXPERIMENTAL_SYSTEM: human LTBR on cells (human, UniProt P36941 31-435)
PROCEDURE_TEXT: cell-based or functional assay
Quick note: number first, unit second.

Some binders with recorded NFκB luc, 0.91 ng/ml, with x linker:
1) P1AF0079 (antibody, human IgG1, kappa, L234A L235A, V domains shown, human IgG1 PG LALA; from transgenic rabbit immunization; also called LTBR (0079)) VH: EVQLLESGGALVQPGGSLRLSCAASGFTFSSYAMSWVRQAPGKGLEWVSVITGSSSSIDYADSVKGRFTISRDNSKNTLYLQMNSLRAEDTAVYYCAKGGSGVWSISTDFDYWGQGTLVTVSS VL: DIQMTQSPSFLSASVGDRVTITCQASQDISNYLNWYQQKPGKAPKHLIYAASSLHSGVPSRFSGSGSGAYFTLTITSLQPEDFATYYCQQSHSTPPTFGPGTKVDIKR = 10600 RLU
2) P1AE9452 (antibody, human IgG1, kappa, L234A L235A, V domains shown, human IgG1 PG LALA; from transgenic rabbit immunization; also called LTBR (9452)) VH: EVQLLESGGGLVQPGGSLRLSCAAAGFTFSSYPMTWVRQAPGKGLEWVSLISPSGATTYYADSVKGRFTISRDTSKNTLYLQMNSLRAEDTAVYYCAKNHYPDDVIIKNYYFYGVDVWGQGTTVTVSS VL: DIQMTQSPSSLSASVGDRVTITCRASQDISNYLNWYQQKPGKAPKSLIYAASSLQSGVPSRFSGSGSGTDFTLTISSLQPEDFANYYCQQTHTIPYSFGQGTNLEIKR = 16900 RLU
3) P1AF0064 (antibody, human IgG1, kappa, L234A L235A, V domains shown, human IgG1 PG LALA constant regions; V domains from rat immunization; also called LTBR (0064)) VH: EVQLQQYGAELGKPGTSVKLSCKVSGYNIGNTYIHWVIQRPGKGLEWIGRIDPTNGNTICTEKFKNKATLTADLSSNTAYMQLSQLKSDDTAIYFCAPTTLTTPDSFAYWGQGTLVTVSS VL: DIQMTQSPSQLSASVGDRVTLSCKASQNIYKYLNWYQQKLGEAPRLLIYSTNILQTGIPSRFSGSGSGTDYTLTISSLQPEDAATYFCQKYYSGFTFGSGTKLEMKR = 33500 RLU

Q) I am curious: what NFκB luc, 0.91 ng/ml, with x linker value has been reported for P1AE9450 (antibody, human IgG1, kappa, L234A L235A, V domains shown, human IgG1 PG LALA; from transgenic rabbit immunization; also called LTBR (9450)) VH: EVQLLESGGGLVQPGGSLRLSCAASGFTVSSYVMKWFRQAPGKGLEWVSSISGSGGRPFYADSVKGRFTISRDNSKNALYLQMNSLRAEDTAVYYCANDMDVWGQGTTVTVSS VL: DIQMTQSPSSLSASVGDRVTITCRASQDISSFLKWYQQKPGKAPTLLIYAASALQSGVPSRFSGSGSGTDFTLTISSLQPEDFATYYCQQYNTYPLTFGGGTKVDIKR ?
A) 16600 RLU

Q) I am curious: what NFκB luc, 0.91 ng/ml, with x linker value has been reported for P1AE9457 (antibody, human IgG1, kappa, L234A L235A, V domains shown, human IgG1 PG LALA; from transgenic rabbit immunization; also called LTBR (9457)) VH: EVQLLESGGGLVQPGGSLRLSCAASGFTFSNYAMTWVRQAPGKGLEWVSEISGSGGSTYYADSVKGRFTISRDNSKNTLYLQMNSLRAEDTAVYYCAKDDDGAYGDTMDVWGQGTTVTVSS VL: DIQMTQSPSSLSASIGDRVTITCRASQDISNYLNWYQQKPGKAPKLLIYAASALQSGVPSRFSGSGSGTDFTLTISSLQPEDFATYYCQHYKSYPYTFGQGTKVEIRR ?
A) 13700 RLU

Q) I am curious: what NFκB luc, 0.91 ng/ml, with x linker value has been reported for P1AF0080 (antibody, human IgG1, kappa, L234A L235A, V domains shown, human IgG1 PG LALA; from transgenic rabbit immunization; also called LTBR (0080)) VH: EVQLLESGGGLVQPGGSLRLSCAASGFTFSYYAMTWVRQAPGKGLEWIGVINSGGGTYYTDSVKGRFTMSRDNSKNTLYLQVNSLRAEDTAVYYCAKASTADVWGQGTTVTVSS VL: DIQMTQSPSSLSASVGDRVTITCQASQGISNYLSWYQQKPGKAPKRLIFAASSLESGVPSRFSGSGSGTDFTLTISSLQPEDFATYYCQQYNSYSLTFGGGTKLEIKR ?
A) 19900 RLU

Q) I am curious: what NFκB luc, 0.91 ng/ml, with x linker value has been reported for P1AE9459 (antibody, human IgG1, kappa, L234A L235A, V domains shown, human IgG1 PG LALA; from transgenic rabbit immunization) VH: EVQLVESGGGLVQPGGSLRLSCAASGFTFSSYTMNWVRQAPGKGLEWVSGVAPSGDRTYYTDSVKGRFTISRDNAKNTLDLQMTSLRAEDAAIYICAQGFAFTNWGQGTMVTVSS VL: DIQMTQSPSSLSASVGDRVTITCRASQGISSALAWFQQKPGKAPKRLIFDASSLDSGVPSRFSGSGSGTDFTLTISSLQPEDFATYYCQQYNNYPLTFGGGTKVEMKR ?
A) 21400 RLU

Q) I am curious: what NFκB luc, 0.91 ng/ml, with x linker value has been reported for P1AE1873 (CBE11) (antibody, human IgG1, kappa, L234A L235A, V domains shown) VH: EVQLVESGGGLVKPGGSLRLSCAASGFTFSDYYMYWFRQAPGKGLEWVATISDGGSYTYYPDSVKGRFTISRDNAKNSLYLQMSSLRAEDTAVYYCAREENGNFYYFDYWGQGTTVTVSS VL: DIQMTQSPSSLSASVGDRVTITCKAGQDIKSYLSWYQQKPGKAPKLLIYYATRLADGVPSRFSGSGSGTDYTLTISSLQPEDFATYYCLQHGESPWTFGGGTKLEIKR ?
A) 39000 RLU

Attribution: patent US20250034269A1
